- Assayed Target: GLP-1 receptor (human, UniProt P43220 24-463)
- Protocol Summary: cell-based or functional assay
Starred links: 1 amine or outer side, 2 acyl side, 3 side chain; linkers in the order of their positions; H or OH if unused. Non-standard residues stand in square brackets, D forms with d. Groups on a side chain read outwards from the residue. Primed or numbered codes have the meaning given here. No end group written: not given here. *: point of attachment. γGlu = O=C(O)[C@H](CCC(=O)[*:2])N[*:1]; Stearoyl = CCCCCCCCCCCCCCCCCC(=O)*; αMeF = C[C@](N)(Cc1ccccc1)C(=O)O; αMeK = C[C@](N)(CCCCN)C(=O)O; αMeS = C[C@](N)(CO)C(=O)O; PEG2′ = not defined here; Aib = CC(C)(N)C(=O)O
Endpoint: Primary assay EC50 (cAMP), n1 (nM)

1: H[Aib]EGS[αMeF]TSDV[αMeS]S[αMeF]LEGEAAK([PEG2′-PEG2′-γGlu-Stearoyl])E[αMeF]IAWVV[αMeK]GG-NH2 [SEQ ID NO 49]
2: H[Aib]EGS[αMeF]TSDVSK([PEG2′-PEG2′-γGlu-Stearoyl])YLEGEAAEE[αMeF]IA[αMeF]VVEGG-NH2 [SEQ ID NO 58]
3: H[Aib]EGS[αMeF]TSDVSS[αMeF]LEGEAAK([PEG2′-PEG2′-γGlu-Stearoyl])E[αMeF]IA[αMeF]VV[αMeK]GG-NH2 [SEQ ID NO 46]
Qu. Please put the 3 binders above in a list ordered by falling Primary assay EC50 (cAMP), n1. Output the labels ranked as instructed.
Ans. 2, 3, 1
